Test: binders of probe aFGF10 on microarray, primary screen, stem cell growth factor project, biochemical, small-molecule microarray, fluorescence 635/667 (AID 1071);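 note: score merges 667 nm spot intensity and signal to noise from triplicate slides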
Details: higher = more signal
Output condition met for composite z-score not less than 0.5; output condition not met otherwise.

The examples below pair each entry with its known result.
CCOC(=O)CCN1C(=O)[C@H]2[C@H]3[C@H](O)[C@H](O)CC(=NOCC=C(C)CCC=C(C)C)[C@H]3CC[C@H]2C1=O : condition not met
CCN(CC)CC(O)CN1CCCCc2nc(C)c(C)cc21 (stereo not drawn) : condition not met
C[C@H]1CC[C@H]2C(=O)OC(COc3ccc(C(C)(C)C)cc3)CN2[C@@H]1c1ccc(Br)cc1 (stereo partly drawn) : condition met
C#CCCCON=C1C[C@@H](O)[C@@H](O)[C@@H]2[C@@H]3C(=O)N(CC)C(=O)[C@@H]3CC[C@H]12 : condition not met
CC(C)=NOC(C)CN1CCCc2nc(C)c(C)cc21 (stereo not drawn) : condition met

Evaluate CCN1C(=O)[C@H]2[C@H]3[C@H](O)[C@H](O)CC(=NNC(=O)OCc4ccccc4)[C@@H]3CC[C@H]2C1=O : composite z-score at minimum 0.5?
condition not met

Ok, now CCN1C(=O)[C@H]2[C@H]3[C@H](O)[C@H](O)CC(=NO[C@H](C)c4cn([C@H](CO)Cc5ccccc5)nn4)[C@@H]3CC[C@H]2C1=O
condition met

Same question for CC(=O)OC[C@H]1O[C@H](CC=NOC[C@@H](O)COCc2ccco2)C=C[C@@H]1OC(C)=O please.
condition not met
